meta.source: patent EP0608419A1

experiment: Concentration of test compound in eye tissue and blood after transocular administration of ophthalmic solution (EIA); format: in vivo, JW (clean) strain female rabbits; conditions: topical or ocular; Retinochoroid; 30 min. after transocular administration of ophthalmic solution (total 1 mg/rabbit); n = 6; read-out: Mean concentration in tissue ± S.E.
Recorded endpoint: concentration at 0.5 h (ng/g)
Answer with a number only, understood to be in ng/g.

Query :: # input molecule: CNC(=O)OC1CCC2(CO2)C(C2(C)OC2CC=C(C)C)C1OC (stereo not shown) [test compound] ; wanted: its concentration at 0.5 h
Result :: 40.2

====

assay: Concentration of test compound in eye tissue and blood after transocular administration of ophthalmic solution (EIA); assay type: in vivo, JW (clean) strain female rabbits; conditions: topical or ocular; Cornea; 30 min. after transocular administration of ophthalmic solution (2 mg/ml, total 1 mg/rabbit); n = 6; read-out: Mean concentration in tissue ± S.E.
Recorded endpoint: concentration at 0.5 h (ng/g)
Answer with a number only, understood to be in ng/g.

Query :: # input compound: CNC(=O)OC1CCC2(CO2)C(C2(C)OC2CC=C(C)C)C1OC (stereo not shown) [test compound] ; wanted: its concentration at 0.5 h
Result :: 1.56
